The measured values listed here are drawn from patent US7067117.

# Measured on: T1, Duffy Antigen Receptor for Chemokines (DARC) (human) (UniProt Q16570)
# T1 sequence (looked up): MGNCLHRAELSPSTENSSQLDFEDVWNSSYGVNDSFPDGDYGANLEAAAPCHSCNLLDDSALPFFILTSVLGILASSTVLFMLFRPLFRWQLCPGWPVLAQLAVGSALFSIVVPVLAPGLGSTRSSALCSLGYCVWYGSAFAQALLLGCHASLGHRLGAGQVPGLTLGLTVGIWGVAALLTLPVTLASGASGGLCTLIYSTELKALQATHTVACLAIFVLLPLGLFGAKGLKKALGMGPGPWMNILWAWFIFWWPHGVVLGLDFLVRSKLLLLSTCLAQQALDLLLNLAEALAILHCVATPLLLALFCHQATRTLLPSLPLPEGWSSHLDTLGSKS
# Protocol: DARC binding on red blood cells; given as 'association constant'
Bridge positions count the residues as written; N and C are the ends. Square brackets hold non-standard residues; d marks the D form. Ends that are not written are not given here.
Readout name: Kd (µM)
Answers are plain numbers, in µM.

[ask] Provide measured Kd value, entry: [dC][dQ][dI][dW][dK][dQ][dK][dP][dD][dL][dC] (disulfide 1-11) [CRD-Cys13Leu4Ile11peptide 3(3-12)[MCP-1]]
[reply] 90
